# Test system: Grans
# assayMethodText: Peptidases to distinguish leukemia from non-leukemia, granulocytes
# Format: cell-based, human
# Design: unit not given here
# runConditions: N192 normal
Reported enzyme activity is given for each of the following compounds.

[
  {
    "compound": "NCCCC[C@H](N)C(=O)Nc1ccc2c(c1)Oc1cc(NC(=O)[C@@H](N)CCCCN)ccc1C21OC(=O)c2ccccc21 [LYS, (H--L--Lys)2 Rho 110-4TFA]",
    "measuredOn": "Grans",
    "enzyme activity": 1.20
  },
  {
    "compound": "NCC(=O)N1CCC[C@H]1C(=O)Nc1ccc2c(c1)Oc1cc(NC(=O)[C@@H]3CCCN3C(=O)CN)ccc1C21OC(=O)c2ccccc21",
    "measuredOn": "Grans",
    "enzyme activity": 11.22
  },
  {
    "compound": "CC(C)C[C@H](N)C(=O)NCC(=O)Nc1ccc2c(c1)Oc1cc(NC(=O)CNC(=O)[C@@H](N)CC(C)C)ccc1C21OC(=O)c2ccccc21",
    "measuredOn": "Grans",
    "enzyme activity": 6.78
  }
]

* * *

# Tested on: Lymphs
# assayMethodText: Peptidases to distinguish leukemia from non-leukemia, lymphocytes
# Format: cell-based, human
# Parameters: unit not given here
# runConditions: N200 normal
Reported enzyme activity is given for each of the following compounds.
reportedProperty: enzyme activity

[
  {
    "compound": "NCCCC[C@H](N)C(=O)Nc1ccc2c(c1)Oc1cc(NC(=O)[C@@H](N)CCCCN)ccc1C21OC(=O)c2ccccc21 [LYS, (H--L--Lys)2 Rho 110-4TFA]",
    "measuredOn": "Lymphs",
    "measuredNumber": 0.90
  },
  {
    "compound": "C[C@@H](O)[C@H](N)C(=O)N1CCC[C@H]1C(=O)Nc1ccc2c(c1)Oc1cc(NC(=O)[C@@H]3CCCN3C(=O)[C@@H](N)[C@@H](C)O)ccc1C21OC(=O)c2ccccc21",
    "measuredOn": "Lymphs",
    "measuredNumber": 2.39
  },
  {
    "compound": "C[C@H](N)C(=O)Nc1ccc2c(c1)Oc1cc(NC(=O)[C@H](C)N)ccc1C21OC(=O)c2ccccc21",
    "measuredOn": "Lymphs",
    "measuredNumber": 101.38
  },
  {
    "compound": "CC(C)C[C@H](N)C(=O)NCC(=O)Nc1ccc2c(c1)Oc1cc(NC(=O)CNC(=O)[C@@H](N)CC(C)C)ccc1C21OC(=O)c2ccccc21",
    "measuredOn": "Lymphs",
    "measuredNumber": 1.55
  },
  {
    "compound": "NC(=O)CC[C@H](N)C(=O)N[C@@H](CO)C(=O)Nc1ccc2c(c1)Oc1cc(NC(=O)[C@H](CO)NC(=O)[C@@H](N)CCC(N)=O)ccc1C21OC(=O)c2ccccc21 [QS, (H--L--Gln--Ser)2 Rho 110-2TFA]",
    "measuredOn": "Lymphs",
    "measuredNumber": 0.01
  }
]

* * *

# Tested on: Lymphs
# assayMethodText: Peptidases to distinguish leukemia from non-leukemia, lymphocytes
# Type: cell-based, human
# Set-up: unit not given here
# runConditions: P71 ac. pyelonephritis
Reported enzyme activity is given for each of the following molecules.
reportedProperty: enzyme activity

[
  {
    "molecule": "CC(C)[C@H](N)C(=O)N[C@@H](CO)C(=O)Nc1ccc2c(c1)Oc1cc(NC(=O)[C@H](CO)NC(=O)[C@@H](N)C(C)C)ccc1C21OC(=O)c2ccccc21 [VS, (H--L--Val--Ser)2 Rho 110-2TFA]",
    "measuredNumber": 0.08
  },
  {
    "molecule": "O=C1OC2(c3ccc(NC(=O)[C@@H]4CCCN4)cc3Oc3cc(NC(=O)[C@@H]4CCCN4)ccc32)c2ccccc21 [PRO, (H--L--Pro)2 Rho 110-2TFA]",
    "measuredNumber": 0.52
  },
  {
    "molecule": "NCC(=O)Nc1ccc2c(c1)Oc1cc(NC(=O)CN)ccc1C21OC(=O)c2ccccc21",
    "measuredNumber": 41.93
  }
]

* * *

Reported enzyme activity is given for each of the following compounds.
# Test system: Grans
# assayMethodText: Peptidases to distinguish leukemia from non-leukemia, granulocytes
# Type: cell-based, human
# Design: unit not given here
# runConditions: N192 normal

[
  {
    "compound": "O=C1OC2(c3ccc(NC(=O)[C@@H]4CCCN4)cc3Oc3cc(NC(=O)[C@@H]4CCCN4)ccc32)c2ccccc21 [PRO, (H--L--Pro)2 Rho 110-2TFA]",
    "enzyme activity": 4.34
  },
  {
    "compound": "C[C@@H](O)[C@H](N)C(=O)N1CCC[C@H]1C(=O)Nc1ccc2c(c1)Oc1cc(NC(=O)[C@@H]3CCCN3C(=O)[C@@H](N)[C@@H](C)O)ccc1C21OC(=O)c2ccccc21 [TP]",
    "enzyme activity": 4.62
  },
  {
    "compound": "NC(=O)CC[C@H](N)C(=O)N[C@@H](CO)C(=O)Nc1ccc2c(c1)Oc1cc(NC(=O)[C@H](CO)NC(=O)[C@@H](N)CCC(N)=O)ccc1C21OC(=O)c2ccccc21 [QS, (H--L--Gln--Ser)2 Rho 110-2TFA]",
    "enzyme activity": 0.15
  }
]

* * *

# Test system: Grans
# assayMethodText: Peptidases to distinguish leukemia from non-leukemia, granulocytes
# Type: cell-based, human
# Parameters: unit not given here
# runConditions: P70 cirrhosis/hemobilia
Reported enzyme activity is given for each of the following compounds.

[
  {
    "compound": "NCC(=O)Nc1ccc2c(c1)Oc1cc(NC(=O)CN)ccc1C21OC(=O)c2ccccc21 [GLY, (Gly)2 Rho 110]",
    "enzyme activity": 88.42
  },
  {
    "compound": "C[C@H](N)C(=O)Nc1ccc2c(c1)Oc1cc(NC(=O)[C@H](C)N)ccc1C21OC(=O)c2ccccc21 [ALA, (Ala)2 Rho 110]",
    "enzyme activity": 236.23
  },
  {
    "compound": "NC(=O)CC[C@H](N)C(=O)N[C@@H](CO)C(=O)Nc1ccc2c(c1)Oc1cc(NC(=O)[C@H](CO)NC(=O)[C@@H](N)CCC(N)=O)ccc1C21OC(=O)c2ccccc21 [QS, (H--L--Gln--Ser)2 Rho 110-2TFA]",
    "enzyme activity": 0.19
  },
  {
    "compound": "CC(C)C[C@H](N)C(=O)NCC(=O)Nc1ccc2c(c1)Oc1cc(NC(=O)CNC(=O)[C@@H](N)CC(C)C)ccc1C21OC(=O)c2ccccc21 [LG]",
    "enzyme activity": 2.20
  },
  {
    "compound": "C[C@@H](O)[C@H](N)C(=O)N1CCC[C@H]1C(=O)Nc1ccc2c(c1)Oc1cc(NC(=O)[C@@H]3CCCN3C(=O)[C@@H](N)[C@@H](C)O)ccc1C21OC(=O)c2ccccc21 [TP]",
    "enzyme activity": 4.02
  }
]
